# system: JAK1 (Homo sapiens)
# Construct: purchased Thermo Fisher Scientific
# Sequence (P23458 whole entry): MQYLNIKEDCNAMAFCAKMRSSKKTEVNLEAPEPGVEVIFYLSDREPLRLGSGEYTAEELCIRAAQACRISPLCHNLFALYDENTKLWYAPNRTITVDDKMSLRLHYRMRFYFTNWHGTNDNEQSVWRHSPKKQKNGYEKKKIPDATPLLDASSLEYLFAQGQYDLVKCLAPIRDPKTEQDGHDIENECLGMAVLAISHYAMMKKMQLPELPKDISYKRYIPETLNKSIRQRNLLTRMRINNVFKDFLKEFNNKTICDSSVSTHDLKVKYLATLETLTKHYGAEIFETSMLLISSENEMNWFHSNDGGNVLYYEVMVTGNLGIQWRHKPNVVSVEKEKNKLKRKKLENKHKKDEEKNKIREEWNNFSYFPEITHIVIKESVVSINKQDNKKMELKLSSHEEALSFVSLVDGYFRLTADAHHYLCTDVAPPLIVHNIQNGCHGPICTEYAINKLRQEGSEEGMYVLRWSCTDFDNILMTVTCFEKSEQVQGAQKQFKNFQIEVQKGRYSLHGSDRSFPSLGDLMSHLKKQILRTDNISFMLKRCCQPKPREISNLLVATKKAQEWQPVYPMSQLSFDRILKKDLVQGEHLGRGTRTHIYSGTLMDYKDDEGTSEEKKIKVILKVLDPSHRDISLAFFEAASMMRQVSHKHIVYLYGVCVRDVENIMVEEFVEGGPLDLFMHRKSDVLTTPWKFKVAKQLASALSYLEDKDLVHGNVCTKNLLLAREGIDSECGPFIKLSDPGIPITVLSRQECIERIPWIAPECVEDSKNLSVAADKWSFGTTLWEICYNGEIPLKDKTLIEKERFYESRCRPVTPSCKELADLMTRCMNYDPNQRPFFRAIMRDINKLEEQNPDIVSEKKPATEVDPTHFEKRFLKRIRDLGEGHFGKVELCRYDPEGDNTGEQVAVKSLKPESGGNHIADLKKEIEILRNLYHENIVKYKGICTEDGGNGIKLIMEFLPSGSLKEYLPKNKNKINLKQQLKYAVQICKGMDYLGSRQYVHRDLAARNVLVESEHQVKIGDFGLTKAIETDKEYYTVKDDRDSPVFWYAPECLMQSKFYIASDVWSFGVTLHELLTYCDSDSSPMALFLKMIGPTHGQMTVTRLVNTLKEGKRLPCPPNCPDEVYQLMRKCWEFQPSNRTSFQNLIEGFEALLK
# method: Z'-LYTE JAK1 kinase screen (Thermo Fisher Scientific)
# Assay type: biochemical
# experimental-context: test compound 100 nM; 1% DMSO; ATP at Km apparent
readout-kind: inhibition at 0.1 µM (%)

Some solved entries appear below for comparison.
Request: Please list inhibition at 0.1 µM recorded for the molecule CCCNS(=O)(=O)C1CC2(CC(N(C)c3ncnc4[nH]ccc34)C2)C1 (centres unmarked) [Compound 3]
Result: 92

Request: Please list inhibition at 0.1 µM recorded for the molecule CN(c1ncnc2[nH]ccc12)C1CC2(C1)CC(S(=O)(=O)NC1CCC1)C2 (centres unmarked) [Compound 9]
Result: 93

Request: Please list inhibition at 0.1 µM recorded for the molecule CCNS(=O)(=O)C1CC2(CC(N(C)c3ncnc4[nH]ccc34)C2)C1 (centres unmarked) [Compound 2]
Result: 90

Request: Please list inhibition at 0.1 µM recorded for the molecule CN(c1ncnc2[nH]ccc12)C1CC2(CC(NS(=O)(=O)c3ccccc3Cl)C2)C1 (centres unmarked) [Compound 12]
Result: 60

Request: Please list inhibition at 0.1 µM recorded for the molecule CN(c1ncnc2[nH]ccc12)C1CC2(C1)CC(S(=O)(=O)NCC(F)(F)F)C2 (centres unmarked) [Compound 6]
Result: 93

Request: Please list inhibition at 0.1 µM recorded for the molecule CN(c1ncnc2[nH]ccc12)C1CC2(C1)CC(S(=O)(=O)NC1CC1)C2 (centres unmarked) [Compound 5]
Result: 94

Request: Please list inhibition at 0.1 µM recorded for the molecule CN(c1ncnc2[nH]ccc12)C1CC2(C1)CC(S(=O)(=O)NC1CCCC1)C2 (centres unmarked) [Compound 10]
Result: 84

Request: Please list inhibition at 0.1 µM recorded for the molecule CCCS(=O)(=O)NC1CC2(C1)CC(N(C)c1ncnc3[nH]ccc13)C2 (centres unmarked) [Compound 17]
Result: 83

Request: Please list inhibition at 0.1 µM recorded for the molecule CN(c1ncnc2[nH]ccc12)C1CC2(C1)CC(S(=O)(=O)N1CCCC1)C2 (centres unmarked) [Compound 30]
Result: 89

Request: Please list inhibition at 0.1 µM recorded for the molecule CNS(=O)(=O)C1CC2(CC(N(C)c3ncnc4[nH]ccc34)C2)C1 (centres unmarked) [Compound 1]
Result: 92

1. CN(c1ncnc2[nH]ccc12)C1CC2(C1)CC(S(N)(=O)=O)C2 (centres unmarked) [Compound 28]
2. CC(C)CNS(=O)(=O)C1CC2(CC(N(C)c3ncnc4[nH]ccc34)C2)C1 (centres unmarked) [Compound 7]
3. CNS(=O)(=O)C1CC2(CC(N(C)c3ncnc4[nH]ncc34)C2)C1 (centres unmarked) [Compound 25]
Request: Sort by inhibition at 0.1 µM, descending. API: response body holds the labels in the requested order.
Result: 2, 1, 3

Sourced from patent US10744136B2
